Measured values drawn from paper PMC6010002 for this set.

target: BuChE (EC 3.1.1.8) from horse serum (Equus caballus); construct: BuChE (EC 3.1.1.8, from equine serum, C0663); purchased Sigma-Aldrich C0663; host or cells: equine serum (natural source); assay: biochemical; settings: eqBuChE, mean ± SEM of triplicate independent experiments
Sequence (P81908 whole entry): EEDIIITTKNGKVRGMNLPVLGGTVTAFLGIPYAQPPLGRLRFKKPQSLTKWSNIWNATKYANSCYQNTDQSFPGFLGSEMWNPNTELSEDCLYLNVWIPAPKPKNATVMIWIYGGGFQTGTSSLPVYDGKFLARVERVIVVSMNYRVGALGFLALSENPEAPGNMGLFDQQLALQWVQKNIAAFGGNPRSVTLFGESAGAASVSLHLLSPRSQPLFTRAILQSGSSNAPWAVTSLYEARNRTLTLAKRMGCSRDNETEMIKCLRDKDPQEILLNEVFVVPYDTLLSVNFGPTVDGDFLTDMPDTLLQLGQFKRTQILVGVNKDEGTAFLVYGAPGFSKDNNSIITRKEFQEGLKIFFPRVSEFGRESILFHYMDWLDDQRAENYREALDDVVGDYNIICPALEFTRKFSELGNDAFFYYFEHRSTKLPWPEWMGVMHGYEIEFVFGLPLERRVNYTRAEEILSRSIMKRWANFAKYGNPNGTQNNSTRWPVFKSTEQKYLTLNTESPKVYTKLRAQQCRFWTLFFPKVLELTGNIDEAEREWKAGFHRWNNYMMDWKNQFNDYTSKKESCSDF
Recorded IC50 by entry
Readout: IC50

COc1cc(/C=C/C(=O)NCCNc2c3c(nc4ccccc24)CCCC3)ccc1OCc1ccc(C)cc1 [Compound 10h]; 147 nM
COc1cc(/C=C/C(=O)NCCNc2c3c(nc4ccccc24)CCCC3)ccc1OCc1ccc(C(C)(C)C)cc1 [Compound 10i]; 158 nM
COc1cc(/C=C/C(=O)NCCNc2c3c(nc4ccccc24)CCCC3)ccc1OCc1ccccc1 [Compound 10a]; 215 nM
COc1cc(/C=C/C(=O)NCCNc2c3c(nc4ccccc24)CCCC3)ccc1OCc1ccccc1C [Compound 10e]; 98.6 nM

###

Target: Aβ1–42 (Homo sapiens, UniProt P05067)
Construct: aliquots of 2 μL of Aβ1–42 (AS-64129–05 Anaspec Inc.); purchased Anaspec Inc. AS-64129–05
Sequence (P05067 672-713): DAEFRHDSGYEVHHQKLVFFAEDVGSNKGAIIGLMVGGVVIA
Assay: Inhibition of self-induced Aβ1–42 aggregation (Thioflavin T assay)
Format: biochemical
Settings: ThT fluorescence, 24 h incubation, read-out: Inhibitory rate of compounds (25 μM) on self-induced Aβ1-42 aggregation
Experimental: Inhibitory effects of the compounds on self-induced Aβ1–42 aggregation were tested through a Thioflavin T (ThT)-(T3516, Sigma-Aldrich) binding assay. The calculation of the inhibitory rate of Aβ1–42 self-induced aggregation was performed as the following equation: (1 − IFi/IFc) × 100%. IFi and IFc were the fluorescence intensities measured in the presence and absence of inhibitors, respectively, after subtracting the background fluorescence of the 5 mM ThT solution. […]
Readout: inhibition at 25 µM (%)

Oc1ccc(/C=C/c2cc(O)cc(O)c2)cc1 [Resveratrol, reference compound]; 45.7
COc1cc(/C=C/C(=O)NCCNc2c3c(nc4ccccc24)CCCC3)ccc1OCc1ccc(C)c(C)c1 [Compound 10g]; 65.5
COc1cc(/C=C/C(=O)NCCNc2c3c(nc4ccccc24)CCCC3)ccc1OCc1ccc(Br)cc1 [Compound 10d]; 66.8
COc1cc(/C=C/C(=O)NCCNc2c3c(nc4ccccc24)CCCC3)ccc1OCc1ccc(C#N)cc1 [Compound 10j]; 49.5

###

Recorded IC50 by entry
biological target: AChE (EC 3.1.1.7) from electric eel (Electrophorus electricus); construct: AChE (EC 3.1.1.7, Type VI-S, from electric eel, C3389); purchased Sigma-Aldrich C3389; host or cells: electric eel (natural source); experiment: biochemical; conditions: eeAChE, mean ± SEM of triplicate independent experiments
Sequence (O42275 24-633): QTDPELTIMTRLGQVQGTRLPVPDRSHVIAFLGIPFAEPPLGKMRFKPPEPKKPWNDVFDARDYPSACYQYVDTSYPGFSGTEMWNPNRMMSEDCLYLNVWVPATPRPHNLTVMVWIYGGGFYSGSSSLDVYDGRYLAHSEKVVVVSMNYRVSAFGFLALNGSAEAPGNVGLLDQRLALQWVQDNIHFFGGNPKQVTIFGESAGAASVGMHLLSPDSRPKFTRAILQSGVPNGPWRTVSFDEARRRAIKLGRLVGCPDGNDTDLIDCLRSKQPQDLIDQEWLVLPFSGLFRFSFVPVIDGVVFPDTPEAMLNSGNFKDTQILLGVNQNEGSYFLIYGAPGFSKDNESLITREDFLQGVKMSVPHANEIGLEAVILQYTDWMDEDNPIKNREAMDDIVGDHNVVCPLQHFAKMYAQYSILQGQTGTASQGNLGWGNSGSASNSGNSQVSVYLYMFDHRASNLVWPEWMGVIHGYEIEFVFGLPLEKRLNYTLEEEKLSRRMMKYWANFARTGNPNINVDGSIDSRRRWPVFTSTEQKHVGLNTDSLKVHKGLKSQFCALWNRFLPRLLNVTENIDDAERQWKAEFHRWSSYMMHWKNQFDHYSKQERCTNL
Readout: IC50

COc1cc(/C=C/C(=O)NCCNc2c3c(nc4ccccc24)CCCC3)ccc1OCc1ccc(C(F)(F)F)cc1 [Compound 10k]; 129 nM
COc1cc(/C=C/C(=O)NCCNc2c3c(nc4ccccc24)CCCC3)ccc1OCc1ccc(Cl)cc1 [Compound 10c]; 101 nM
COc1cc(/C=C/C(=O)NCCNc2c3c(nc4ccccc24)CCCC3)ccc1OCc1ccccc1C [Compound 10e]; 64.5 nM
COc1ccc(COc2ccc(/C=C/C(=O)NCCNc3c4c(nc5ccccc35)CCCC4)cc2OC)cc1 [Compound 10m]; 75.5 nM
COc1cc(/C=C/C(=O)NCCNc2c3c(nc4ccccc24)CCCC3)ccc1OCc1ccc(C#N)cc1 [Compound 10j]; 107 nM
COc1cc(/C=C/C(=O)NCCNc2c3c(nc4ccccc24)CCCC3)ccc1OCc1ccc(F)cc1 [Compound 10b]; 115 nM
COc1cc(/C=C/C(=O)NCCNc2c3c(nc4ccccc24)CCCC3)ccc1OCc1cccc(C)c1 [Compound 10f]; 63.2 nM
COc1cc(/C=C/C(=O)NCCNc2c3c(nc4ccccc24)CCCC3)ccc1OCc1ccc(Br)cc1 [Compound 10d]; 49.5 nM
COc1cccc(COc2ccc(/C=C/C(=O)NCCNc3c4c(nc5ccccc35)CCCC4)cc2OC)c1 [Compound 10l]; 143 nM
COc1cc(/C=C/C(=O)NCCNc2c3c(nc4ccccc24)CCCC3)ccc1OCc1ccc(C)c(C)c1 [Compound 10g]; 37 nM
COc1cc(/C=C/C(=O)NCCNc2c3c(nc4ccccc24)CCCC3)ccc1OCc1ccc(C(C)(C)C)cc1 [Compound 10i]; 284 nM
COc1cc(/C=C/C(=O)NCCNc2c3c(nc4ccccc24)CCCC3)ccc1OCc1ccc(C)cc1 [Compound 10h]; 140 nM
COc1cc(/C=C/C(=O)NCCNc2c3c(nc4ccccc24)CCCC3)ccc1OCc1ccccc1 [Compound 10a]; 92.2 nM
